Where these numbers come from: patent US10787442B2

Assay: Toxicokinetics in Beagle dogs, 7 day repeat oral administration
Assay type: in vivo, Beagle dog
Conditions: female, Beagle, dog, plasma, po, 20 mg/kg, Day1, Female, 20 mg/kg PO BID; read-out: AUC (0-12 hr)
observable: AUC(0-t) (ng·h/mL)
One number for each entry, in ng·h/mL.

IN: Looking for the measured AUC(0-t) of CC(C)CN(c1ncc([C@H](C)CC(=O)O)cc1Nc1ccc(Cl)cn1)C1CCOCC1 , can you help?
OUT: 5200

###

Assay: Toxicokinetics in Beagle dogs, 7 day repeat oral administration
Type: in vivo, Beagle dog
Conditions: male, Beagle, dog, plasma, po, 20 mg/kg, Day7, Male, 20 mg/kg PO BID
observable: Cmax (ng/mL)
Give bare numbers, in ng/mL.

IN: Looking for the measured Cmax of CC(C)CN(c1ncc([C@H](C)CC(=O)O)cc1Nc1ccc(Cl)cn1)C1CCOCC1 , can you help?
OUT: 8200

###

Test: Toxicokinetics in Beagle dogs, 7 day repeat oral administration
Type: in vivo, Beagle dog
Conditions: female, Beagle, dog, plasma, po, 20 mg/kg, Day1, Female, 20 mg/kg PO BID
observable: Cmax

IN: Looking for the measured Cmax of CC(C)CN(c1ncc([C@H](C)CC(=O)O)cc1Nc1ccc(Cl)cn1)C1CCOCC1 , can you help?
OUT: 3.7 µg/mL

###

Assay: Toxicokinetics in Beagle dogs, 7 day repeat oral administration
Format: in vivo, Beagle dog
Details: male, Beagle, dog, plasma, po, 20 mg/kg, Day1, Male, 20 mg/kg PO BID
From the text: To understand its toxicokinetics and potential effect on hepatic functions, EXAMPLE 6 was orally dosed to Beagle dogs for 7 consecutive days.
observable: Cmax
The answer consists of two parts: a number and, after it, its unit.

IN: Looking for the measured Cmax of CC(C)CN(c1ncc([C@H](C)CC(=O)O)cc1Nc1ccc(Cl)cn1)C1CCOCC1 , can you help?
OUT: 10200 ng/mL

###

Target: indoleamine 2, 3-dioxygenase (IDO1) (Homo sapiens, UniProt P14902)
Sequence (P14902 whole entry): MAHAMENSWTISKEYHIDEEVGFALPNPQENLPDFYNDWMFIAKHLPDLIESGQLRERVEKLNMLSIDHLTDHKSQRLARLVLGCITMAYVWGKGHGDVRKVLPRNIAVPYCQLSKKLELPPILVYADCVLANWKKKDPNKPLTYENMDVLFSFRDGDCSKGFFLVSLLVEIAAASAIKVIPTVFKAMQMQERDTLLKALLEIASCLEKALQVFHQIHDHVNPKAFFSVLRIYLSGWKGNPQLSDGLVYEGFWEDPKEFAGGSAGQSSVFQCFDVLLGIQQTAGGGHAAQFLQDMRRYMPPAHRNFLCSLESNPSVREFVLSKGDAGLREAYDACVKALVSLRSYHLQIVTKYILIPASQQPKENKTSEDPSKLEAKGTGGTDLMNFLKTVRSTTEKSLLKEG
Assay: IDO1 HeLa RapidFire MS Assay (kynurenine by mass spectrometry)
Assay type: cell-based
Conditions: HeLa cells stimulated with IFN-γ, 2 days; recorded as pIC50; read-out: IDO1 HeLa PXC50 (converted)
observable: IC50 (nM)
Give bare numbers, in nM.

molecule="CC(C)CN(c1ncc(C(C)CC(=O)O)cc1Nc1nc(C(F)(F)F)ns1)C1CCOCC1 (stereo not drawn)" target_or_system="indoleamine 2, 3-dioxygenase (IDO1) (Homo sapiens, UniProt P14902)" unit_string=nM observed_measurement=5.01

Kindly give each listed record's IC50.
1. CC(C)CN(c1ncc(C(C)CC(=O)O)cc1Nc1nc(Cl)ns1)C1CCOCC1 (stereo not drawn)
2. C[C@H](CC(=O)O)c1cnc(N(CCCCCN)C2CCOCC2)c(Nc2ccc(Cl)cn2)c1

OUT:
1: 316; 2: 10

###

Tested on: human epithelial HeLa cells
Assay: HeLa cytotoxicity assay (CellTiter-Glo)
Format: cell-based
Settings: cytotoxicity in stimulated HeLa cells, recorded as pCC50
Procedure: Compounds of the present invention were tested via high-throughput cellular assays utilizing detection of kynurenine via mass spectrometry and cytotoxicity as end-points. […] Cellular toxicity due to the effect of compound treatment was measured using CellTiter-Glo® reagent (CTG) (Promega Corporation, Madison, Wis.), which is based on luminescent detection of ATP, an indicator of metabolically active cells. […]
observable: HELA_IDO1_TOX_PXC50

Examples with answers:
molecule="CC(C)CN(c1ncc([C@H](C)CC(=O)O)cc1Nc1nc(C(F)(F)F)ns1)C1CC(F)(F)C1 [Example 20]" observed_measurement=<5
molecule="CC(C)CN(c1ncc([C@H](C)CC(=O)O)cc1Nc1nc(C(F)(F)F)ns1)C1CCOCC1 [Example 3]" observed_measurement=<5
molecule="CC(C)CN(c1ncc(C(C)CC(=O)O)cc1Nc1ccc(Cl)cn1)C1CCOCC1 (stereo not shown) [Example 35]" observed_measurement=<5
molecule="CC(C)CN(c1ncc(C(C)CC(=O)O)cc1Nc1ccc(C(F)(F)F)cn1)C1CCOCC1 (stereo not shown) [Example 2]" observed_measurement=<5
molecule="CC(C)CN(CC(C)C)c1ncc([C@H](C)CC(=O)O)cc1Nc1nc(C(F)(F)F)ns1 [Example 40]" observed_measurement=<5
molecule="C[C@H](CC(=O)O)c1cnc(N(CCCCCN)C2CCOCC2)c(Nc2ccc(Cl)cn2)c1 [Example 83]" observed_measurement=<5

Kindly give each listed record's HELA_IDO1_TOX_PXC50.
1. CC(C)CN(c1ncc([C@H](C)CC(=O)O)cc1Nc1nc(Cl)ns1)C1CCC(F)(F)CC1 [Example 30]
2. CC(C)CN(c1ncc(C(C)CC(=O)O)cc1Nc1nc(C(F)(F)F)ns1)C1CCOCC1 (stereo not shown) [Example 31]
3. CC(C)CN(c1ncc(-c2ccccc2C(=O)O)cc1Nc1nc(C(F)(F)F)ns1)C1CCOCC1 [Example 29]
4. CC(C)CN(c1ncc([C@H](C)CC(=O)O)cc1Nc1ccc(Cl)c(F)n1)C1CCOCC1 [Example 7]

OUT:
["<5", "<5", "<5", "<5"]

###

System: human peripheral blood mononuclear cells (PBMC)
Assay: PBMC cytotoxicity assay (CellTiter-Glo)
Type: cell-based
Settings: cytotoxicity in stimulated PBMC, recorded as pCC50
Experimental: Compounds of the present invention were tested via high-throughput cellular assays utilizing detection of kynurenine via mass spectrometry and cytotoxicity as end-points. […] Cellular toxicity due to the effect of compound treatment was measured using CellTiter-Glo® reagent (CTG) (Promega Corporation, Madison, Wis.), which is based on luminescent detection of ATP, an indicator of metabolically active cells. […]
Could you please report measured PBMC_TOX PXC50 for the items listed next?

Examples with answers:
compound=Cc1nsc(Nc2cc([C@H](C)CC(=O)O)cnc2N(CC(C)C)C2CCCCC2)n1 observable="PBMC_TOX PXC50" observed_measurement=<5.2
compound=COCc1nsc(Nc2cc([C@H](C)CC(=O)O)cnc2N(CC(C)C)C2CCOCC2)n1 observable="PBMC_TOX PXC50" observed_measurement=<5.0
compound=CC(C)CN(CC(F)F)c1ncc([C@H](C)CC(=O)O)cc1Nc1ccc(Cl)cn1 observable="PBMC_TOX PXC50" observed_measurement=<5.0
compound=CC(C)CN(c1ncc([C@H](C)CC(=O)O)cc1Nc1cnc(C#N)cn1)C1CCOCC1 observable="PBMC_TOX PXC50" observed_measurement=<5.0
compound=CC(C)CN(c1ncc([C@H](C)CC(=O)O)cc1Nc1nc(Cl)ns1)C1CCOCC1 observable="PBMC_TOX PXC50" observed_measurement=<5.0
compound=CC(C)CN(c1ncc([C@H](C)CC(=O)O)cc1Nc1ccc(C#N)nc1)C1CCOCC1 observable="PBMC_TOX PXC50" observed_measurement=<5.0

Kindly give each listed record's PBMC_TOX PXC50.
1. CC(C)CN(c1ncc(C(C)CC(=O)O)cc1Nc1nc(C(F)(F)F)ns1)C1CCC(O)CC1 (centres unmarked)
2. CC(C)CN(c1ncc([C@H](C)CC(=O)O)cc1Nc1nc(C(F)(F)F)ns1)C1CCCCC1

OUT:
1: <5.0; 2: <5.0

###

Experiment: Toxicokinetics in Beagle dogs, 7 day repeat oral administration
Type: in vivo, Beagle dog
Conditions: Beagle, dog, plasma; Day1, Female, 20 mg/kg PO BID
observable: Tmax (min)
One number for each entry, in min.

IN: Looking for the measured Tmax of CC(C)CN(c1ncc([C@H](C)CC(=O)O)cc1Nc1ccc(Cl)cn1)C1CCOCC1 , can you help?
OUT: 30

###

Assay: Toxicokinetics in Beagle dogs, 7 day repeat oral administration
Format: in vivo, Beagle dog
Details: male, Beagle, dog, plasma, po, 20 mg/kg, Day1, Male, 20 mg/kg PO BID; read-out: AUC (0-12 hr)
observable: AUC(0-t)
The answer consists of two parts: a number and, after it, its unit.

IN: Looking for the measured AUC(0-t) of CC(C)CN(c1ncc([C@H](C)CC(=O)O)cc1Nc1ccc(Cl)cn1)C1CCOCC1 [Example 6] , can you help?
OUT: 8700 ng·h/mL

###

System: human peripheral blood mononuclear cells (PBMC)
Assay: PBMC cytotoxicity assay (CellTiter-Glo)
Assay type: cell-based
Details: cytotoxicity in stimulated PBMC, recorded as pCC50
observable: PBMC_TOX PXC50

Kindly give each listed record's PBMC_TOX PXC50.
1. CC(C)CN(c1ncc([C@H](C)CC(=O)O)cc1Nc1ccc(Cl)nc1)C1CC(F)(F)C1 [Example 19]
2. CC(C)CN(c1ncc([C@H](C)CC(=O)O)cc1Nc1nc(Cl)ns1)C1CC(F)(F)C1 [Example 81]
3. CC(C)CN(c1ncc([C@H](C)CC(=O)O)cc1Nc1ccc(Cl)nc1)C1CCOCC1 [Example 4]

OUT:
["<5.0", "<5.0", "<5.0"]

###

Test: Toxicokinetics in Beagle dogs, 7 day repeat oral administration
Assay type: in vivo, Beagle dog
Conditions: Beagle, dog, plasma, oral, 20 mg/kg; post dose on Days 1 and 7
observable: Tmax
The answer consists of two parts: a number and, after it, its unit.

IN: Looking for the measured Tmax of CC(C)CN(c1ncc([C@H](C)CC(=O)O)cc1Nc1ccc(Cl)cn1)C1CCOCC1 [Example 6] , can you help?
OUT: 30 min
